- Assayed Target: h5HT2A (Homo sapiens (Human), UniProt P28223)
- Sequence (P28223 whole entry): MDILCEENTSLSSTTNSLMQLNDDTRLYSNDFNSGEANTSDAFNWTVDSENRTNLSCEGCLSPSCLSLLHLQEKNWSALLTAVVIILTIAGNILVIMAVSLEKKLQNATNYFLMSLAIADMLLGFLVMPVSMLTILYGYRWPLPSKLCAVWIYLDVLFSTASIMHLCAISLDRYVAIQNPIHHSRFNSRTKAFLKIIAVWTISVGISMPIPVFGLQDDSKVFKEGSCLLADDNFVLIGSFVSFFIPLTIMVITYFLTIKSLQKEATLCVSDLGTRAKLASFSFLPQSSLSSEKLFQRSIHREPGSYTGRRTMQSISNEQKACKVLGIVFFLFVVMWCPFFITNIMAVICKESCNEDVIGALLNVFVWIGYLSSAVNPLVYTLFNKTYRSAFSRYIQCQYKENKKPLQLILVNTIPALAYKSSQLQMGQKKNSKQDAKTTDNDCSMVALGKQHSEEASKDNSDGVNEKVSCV
- Assay Name: h5HT2A binding
Where a name gives a salt, the structure may show the parent alone.
Observation Type: log10 of Ki (log10 of the value in nM)
Hi team, quick reminder: these entries are log10 of Ki (nM).

Observe how each entry below is paired with its result.
Compound	Assayed Target	log10 of Ki
Clc1ccc(CCOc2ccc(Cl)cc2OC2CNC2)cc1 [Example 192]	h5HT2A (Homo sapiens (Human), UniProt P28223)	0.95
COc1ccc2c(c1)CC(Oc1ccc(Cl)cc1OC1CNC1)C2 (centres unmarked) [Example 177]	h5HT2A (Homo sapiens (Human), UniProt P28223)	1.54
FC(F)(F)c1ccc(OCc2ccccc2)c(OC2CNC2)c1 [Example 201, hydrochloride]	h5HT2A (Homo sapiens (Human), UniProt P28223)	1.83
Clc1cccc(COc2ccc(Br)cc2OC2CNC2)c1 [Example 2]	h5HT2A (Homo sapiens (Human), UniProt P28223)	1.62
C[C@@H](Oc1ccc(Br)cc1OC1CNC1)c1cccc(C(F)(F)F)c1 [Example 113]	h5HT2A (Homo sapiens (Human), UniProt P28223)	2.31

Item Cc1nc(COc2ccc(Cl)cc2OC2CNC2)cs1 [Example 29] was tested on h5HT2A (Homo sapiens (Human), UniProt P28223); the reported log10 of Ki is 2.35

Bench note, h5HT2A (Homo sapiens (Human), UniProt P28223): FC(F)(F)c1ccc(OCc2ccc(C(F)(F)F)o2)c(OC2CNC2)c1 [Example 199] , log10 of Ki reads 2.01

Reported h5HT2A (Homo sapiens (Human), UniProt P28223) log10 of Ki for item Clc1ccc(OCCc2ccccc2)c(OC2CNC2)c1 [Example 186] was 1.15

----------
- Assayed Target: h5HT2B (Homo sapiens (Human))
- Sequence (P41595 whole entry): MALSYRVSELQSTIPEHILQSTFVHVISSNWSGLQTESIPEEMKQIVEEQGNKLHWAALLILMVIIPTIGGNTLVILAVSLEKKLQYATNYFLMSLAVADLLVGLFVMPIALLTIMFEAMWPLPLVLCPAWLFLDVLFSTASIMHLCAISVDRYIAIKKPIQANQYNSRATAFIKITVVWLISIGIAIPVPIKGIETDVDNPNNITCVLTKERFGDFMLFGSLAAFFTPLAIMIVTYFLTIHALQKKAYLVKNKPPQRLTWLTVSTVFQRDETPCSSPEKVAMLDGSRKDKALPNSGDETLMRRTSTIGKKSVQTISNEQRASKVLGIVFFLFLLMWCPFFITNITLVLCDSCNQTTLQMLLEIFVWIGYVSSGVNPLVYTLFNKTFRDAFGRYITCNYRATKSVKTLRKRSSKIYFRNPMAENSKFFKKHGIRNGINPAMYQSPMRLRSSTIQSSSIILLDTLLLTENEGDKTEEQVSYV
- Assay Name: h5HT2B binding
In this section we review reported Ki values for a set of molecules.
// units = µM; emit number, no label

Query Fc1ccc(Oc2cc(Cl)ccc2O[C@@H]2CCNC2)cc1 yields Ki of 0.075

----------
- Assayed Target: human SERT (Homo sapiens (Human))
pKi: −log10 of the molar value. Counter-ions that a name gives are not always drawn.
Assign T whenever pKi does not fall below 7; assign F whenever it does.

The following compounds have reported results that may help.
Compound	Qualitative Label
FC(F)(F)c1ccc2c(c1)C(Oc1ccc(Cl)cc1OC1CNC1)CC2 (centres unmarked)	F
Fc1ccc(COc2ccc(Cl)cc2OC2CNC2)cc1C(F)(F)F	T
CC(Oc1ccc(Cl)cc1OC1CNC1)c1ccccc1 (racemic)	F
CC(C)(C)N1CC(Oc2cc(Cl)ccc2OCc2cccc(C(F)(F)F)c2)C1	F

[in] Does pKi meet or surpass 7 for FC(F)(F)c1ccc(COc2ccc(Cl)cc2OC2CCNCC2)o1 [Example 63, hydrochloride] ?
[out] T

----------
- Assayed Target: human SERT (Homo sapiens (Human), UniProt P31645)
- Sequence (P31645 whole entry): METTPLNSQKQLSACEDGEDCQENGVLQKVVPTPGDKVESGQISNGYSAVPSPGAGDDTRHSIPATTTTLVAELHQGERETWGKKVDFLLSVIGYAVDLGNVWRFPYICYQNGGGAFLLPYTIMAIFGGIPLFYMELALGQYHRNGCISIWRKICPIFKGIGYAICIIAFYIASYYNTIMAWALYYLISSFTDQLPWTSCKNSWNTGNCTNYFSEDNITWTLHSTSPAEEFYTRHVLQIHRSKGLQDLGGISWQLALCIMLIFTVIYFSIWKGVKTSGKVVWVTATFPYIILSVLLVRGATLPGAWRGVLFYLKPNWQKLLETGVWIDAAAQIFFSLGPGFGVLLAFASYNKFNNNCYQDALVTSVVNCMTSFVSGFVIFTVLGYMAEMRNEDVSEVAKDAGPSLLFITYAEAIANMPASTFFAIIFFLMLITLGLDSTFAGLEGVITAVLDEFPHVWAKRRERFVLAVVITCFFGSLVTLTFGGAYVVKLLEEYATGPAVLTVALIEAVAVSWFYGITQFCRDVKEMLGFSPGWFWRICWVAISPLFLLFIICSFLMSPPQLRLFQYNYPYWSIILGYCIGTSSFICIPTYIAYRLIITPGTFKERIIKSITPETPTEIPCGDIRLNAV
pKi: −log10 of the molar value.
Y means recorded pKi is 7 or above; N means it is below 7.

Some solved cases for reference:
Molecule	Qualitative Label
CS(=O)(=O)c1cccc(COc2ccc(Cl)cc2OC2CNC2)c1	N
FC(F)(F)c1cccc(COc2ccc(Cl)cc2OC2CNC2)n1	Y
CC(Oc1ccc(Cl)cc1OC1CN(C)C1)c1cccc(C(F)(F)F)c1 (racemic)	N
FC(F)(F)c1ccnc(COc2ccc(Cl)cc2OC2CNC2)c1	N
FC(F)(F)c1ccc(COc2ccc(Cl)cc2OC2CNC2)o1	Y
CN1CC(Oc2cc(F)ccc2OCc2cccc(Cl)c2)C1	N
Cc1ccc2c(c1)CCC2Oc1ccc(Br)cc1OC1CNC1 (racemic)	Y

Moving on to another molecule below.
[in] Would you say CC(C)N1CC(Oc2cc(Br)ccc2OCc2cccc(Cl)c2)C1 shows pKi at minimum 7?
[out] N

----------
- Assayed Target: rat 5-HT7 receptor (Rattus norvegicus (Rat))
- Sequence (P32305 1-435): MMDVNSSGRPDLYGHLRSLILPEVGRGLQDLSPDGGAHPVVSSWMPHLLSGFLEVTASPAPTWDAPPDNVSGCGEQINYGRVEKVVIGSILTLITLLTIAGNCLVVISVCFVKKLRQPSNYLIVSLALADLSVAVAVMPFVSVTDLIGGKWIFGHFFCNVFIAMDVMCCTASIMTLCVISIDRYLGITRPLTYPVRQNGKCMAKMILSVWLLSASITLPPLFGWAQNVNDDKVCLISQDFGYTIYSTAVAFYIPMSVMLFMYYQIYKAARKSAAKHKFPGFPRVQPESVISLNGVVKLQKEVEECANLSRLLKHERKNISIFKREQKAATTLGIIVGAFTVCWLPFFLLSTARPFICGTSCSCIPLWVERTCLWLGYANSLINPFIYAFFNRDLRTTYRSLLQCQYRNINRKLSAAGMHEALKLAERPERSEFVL
- Assay Name: r5-HT7 binding assay, competitive radioligand binding with [3H]5-CT
- Run Conditions: rat 5-HT7, HEK-293 membranes
Structures can show the parent of a compound that is named as a salt.
Observation Type: Ki (nM)
Field: numeric (nM). Do not append units.

Known Ki results, listed for orientation:
Compound	Assayed Target	Unit Of Measure	Ki
O=C(c1ccc(Cl)cc1)c1ccc(Cl)cc1OC1CNC1	rat 5-HT7 receptor (Rattus norvegicus (Rat))	nM	150
Clc1ccc(Oc2ccccc2)c(OC2CNC2)c1	rat 5-HT7 receptor (Rattus norvegicus (Rat))	nM	160

# compound Brc1ccc(Oc2ccc3ccccc3c2)c(OC2CNC2)c1 ; its Ki = 19

Input C[C@@H]1[C@@H](Oc2ccc(Cl)cc2OC2CNC2)CN1Cc1ccccc1 (racemic) . Output Ki: 145

Record Clc1cccc(Oc2ccc(Cl)cc2OC2CNC2)c1 [Example 257, maleate] . Reported Ki: 21

// Ki value for Cc1ccc(Oc2cc(Cl)ccc2O[C@@H]2CCNC2)cc1 : 2300

For this compound ( OC1(COc2cc(Br)ccc2OCc2cccc(Cl)c2)CNC1 ), measured Ki is 665

The recorded Ki for Fc1ccc(Oc2cc(Cl)ccc2O[C@@H]2CCNC2)cc1 is 1000

# Ki (compound: Clc1ccc(Oc2ccc3cccnc3n2)c(OC2CNC2)c1 ) is 544

----------
- Assayed Target: r5-HT7 receptor (Rattus norvegicus (Rat))
- Sequence (P32305 1-435): as above
- Assay Name: HitHunter cAMP assay, antagonist testing against 100 nM 5-CT
- Assay type: cell-based
- Run Conditions: antagonist testing, 100 nM 5-CT challenge, HEK-293 r5-HT7; read-out: R5HT7 cAMP pKb (converted)
Where a name gives a salt, the structure may show the parent alone.
Sorting guide: entries reporting Kb beneath 20 nM go in the true (1) pile, the rest go in the false (0) pile.

Some solved cases for reference:
Compound	Qualitative Label
CCCN1CC(Oc2cc(Br)ccc2OCc2cccc(Cl)c2)C1	true (1)
Clc1ccc(OCc2ccc(Cl)c(Cl)c2)c(OC2CNC2)c1	false (0)
Clc1cccc(COc2ccc(Br)cc2OC2CCNCC2)c1	false (0)

[in] Kb strictly < 20 nM for this compound? Clc1ccccc1COc1ccc(Br)cc1OC1CNC1 [Example 15, trifluoroacetate]
[out] false (0)

[in] A record lists Fc1ccc(COc2ccc(Br)cc2OC2CNC2)cc1Cl . Is its Kb below 20 nM?
[out] true (1)

[in] Is Kb strictly under 20 nM for the entry COc1cccc(COc2ccc(Cl)cc2OC2CNC2)c1 ?
[out] true (1)

[in] # check: Kb < 20 nM for FC(F)(F)Oc1cccc(Oc2ccc(Br)cc2OC2CNC2)c1
[out] false (0)

----------
// values below are pKi; system is human SERT (Homo sapiens (Human), UniProt P31645)
Scale: pKi equals -log10([C]), with [C] in mol/L.

Consider the reported pKi for these compounds:
Compound	pKi
CN1CC(Oc2cc(Cl)ccc2OCc2cc(CO)c(C(F)(F)F)o2)C1	5.30
CSc1cccc(COc2ccc(Cl)cc2OC2CNC2)c1	7.89
Fc1ccc2c(c1)C(Oc1ccc(Cl)cc1OC1CNC1)CC2 (racemic)	7.89
Clc1cccc(COc2ccc(Br)cc2OC2CNC2)c1	9.00
FC(F)(F)c1ccc(COc2ccc(Br)cc2OC2CNC2)o1	7.41
O=C(c1ccc2ccccc2c1)c1ccc(Br)cc1OC1CNC1	7.85
N#Cc1cccc(COc2ccc(Cl)cc2OC2CNC2)c1	9.00
CC(Oc1ccc(Cl)cc1OC1CNC1)c1cccc(C(F)(F)F)c1 (racemic) [Example 105]	6.71

Result for Clc1ccc(OC2Cc3ccccc3C2)c(OC2CNC2)c1 , tested on human SERT (Homo sapiens (Human), UniProt P31645), pKi: 7.25

Given the compound FC(F)(F)c1ccc(COc2ccc(Cl)cc2OC2CNC2)cc1 and test system human SERT (Homo sapiens (Human), UniProt P31645), the measured pKi is 7.07

----------
- Assayed Target: UniProt P41595
- Assay Name: h5HT2B binding
# key: entry, value: pKi
// pKi: -log10(molar conc.)

Molecule	pKi
Clc1ccc(OCCc2ccccc2)c(OC2CNC2)c1	8.10
Clc1cccc(COc2cc(Cl)ccc2O[C@H]2CCNC2)c1	6.60

Field: next molecule
# pKi (molecule: C[C@@H](Oc1ccc(C(F)(F)F)cc1OC1CNC1)c1cccc(C(F)(F)F)c1 (stereo in doubt) ) is 5.12

----------
- Assayed Target: h5HT2A (Homo sapiens (Human))
- Assay Name: h5HT2A binding
Below: a set of entries, each annotated with reported log10(Ki).
Please keep in mind that the values are log10 of Ki expressed in µM.

Compound	log10(Ki)
Clc1cccc(CCOc2ccc(Cl)cc2OC2CNC2)c1	-2.10
CN1CC[C@@H](Oc2ccc(Cl)cc2OCc2ccccc2)C1	-2.30
FC(F)(F)c1ccnc(COc2ccc(Cl)cc2OC2CNC2)c1	-1.12
Clc1cccc(COc2cc(Cl)ccc2O[C@@H]2CCNC2)c1	-1.85

COc1ccc(CCOc2ccc(Cl)cc2OC2CNC2)cc1 yielded log10(Ki) of -2.40

The reported log10(Ki) of the compound FC(F)(F)c1cccc(COc2ccc(Cl)cc2OC2CNC2)n1 was -1.16

Per the record, Fc1cccc(CCOc2ccc(Cl)cc2OC2CNC2)c1 has log10(Ki) of -2.10

// sample FC(F)(F)c1ccc2c(c1)C(Oc1ccc(Cl)cc1OC1CNC1)CC2 (stereo not shown) , its log10(Ki) was -2.30
